# system.tested: DNA polymerase eta (Homo sapiens) (UniProt Q9Y253)
# Sequence (Q9Y253 whole entry, looked up): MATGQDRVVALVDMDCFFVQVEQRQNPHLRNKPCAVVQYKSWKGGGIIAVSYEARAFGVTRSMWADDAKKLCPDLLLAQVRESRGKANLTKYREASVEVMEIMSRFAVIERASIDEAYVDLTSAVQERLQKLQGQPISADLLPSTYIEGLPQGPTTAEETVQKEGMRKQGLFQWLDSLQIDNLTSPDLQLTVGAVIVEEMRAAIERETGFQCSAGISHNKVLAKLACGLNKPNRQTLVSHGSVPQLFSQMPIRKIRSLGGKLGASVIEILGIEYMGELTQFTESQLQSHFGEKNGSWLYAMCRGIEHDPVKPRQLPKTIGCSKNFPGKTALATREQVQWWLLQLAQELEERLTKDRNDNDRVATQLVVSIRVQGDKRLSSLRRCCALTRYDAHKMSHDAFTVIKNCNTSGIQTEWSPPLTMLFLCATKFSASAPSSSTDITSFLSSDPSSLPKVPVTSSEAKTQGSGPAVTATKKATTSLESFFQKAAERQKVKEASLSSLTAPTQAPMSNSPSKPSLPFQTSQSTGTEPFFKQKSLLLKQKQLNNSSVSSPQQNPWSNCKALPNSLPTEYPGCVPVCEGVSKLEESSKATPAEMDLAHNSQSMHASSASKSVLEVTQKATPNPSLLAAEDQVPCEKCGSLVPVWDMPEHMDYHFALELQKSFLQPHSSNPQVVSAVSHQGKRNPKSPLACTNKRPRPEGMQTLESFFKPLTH
# test.method.notes: qHTS for Inhibitors of Polymerase Eta
# condition.notes: recombinant Pol eta, fluorescent DNA replication assay; series mostly up to 114 µM
Screen size: about 390,000 compounds; about 4,700 (1.2%) were called active. Not shown: some 4% with an inconclusive outcome. Calls come from the whole dose curve; as a rule, active = well fitted inhibition curve with a large enough effect; inconclusive = small, poorly fitted or top-dose-only effect, or another doubt; inactive = no such curve, though single readings can be large or run the other way. This is one part of a sample in which actives are shown more often than they occur.
Possible outcomes: active, inactive

{"molecule": "CCOC(=O)C(O)(c1ccc(N)c(OC)c1)C(F)(F)F (stereo not given)", "class": "inactive"}
{"molecule": "Cc1cc(C(=O)OCC(=O)Nc2c(F)cccc2F)c(C)n1C1CC1", "class": "inactive"}
{"molecule": "CC(=NC1CCN(Cc2ccccc2)CC1)c1c(O)n(C)c(=O)n(C)c1=O", "class": "inactive"}
{"molecule": "Cc1c(C(=O)O)cccc1-n1c(C)cc(/C=C2\\C(=O)NC(=O)N(c3ccc4c(c3)OCO4)C2=O)c1C", "class": "active"}
{"molecule": "CC(=O)c1c(O)n(C2CCCCCC2)c(=O)[nH]c1=O", "class": "inactive"}

* * *

# system.tested: DNA polymerase eta (Homo sapiens) (UniProt Q9Y253)
# test.method.notes: qHTS for Inhibitors of Polymerase Eta
# condition.notes: recombinant Pol eta, fluorescent DNA replication assay; series mostly up to 114 µM
The whole screen tested about 390,000 compounds, of which about 4,700 (1.2%) were called active. Not shown: some 4% with an inconclusive outcome. Calls follow the shape of the dose curve; as a rule, active = well fitted inhibition curve with a large enough effect; inconclusive = small, poorly fitted or top-dose-only effect, or another doubt; inactive = no such curve, though single readings can be large or run the other way. Shown is part of a subset that was picked to be rich in actives.
Possible outcomes: active, inactive

{"compound": "CCN(N=Nc1nonc1OC)c1nonc1OC", "system.tested": "DNA polymerase eta (Homo sapiens) (UniProt Q9Y253)", "class": "inactive"}
{"compound": "Cn1c(O)c(C=NCCN2CCNCC2)c(=O)n(C)c1=O", "system.tested": "DNA polymerase eta (Homo sapiens) (UniProt Q9Y253)", "class": "inactive"}
{"compound": "COC(=O)C1=C(c2cc3ccccc3s2)C[C@@H]2CC[C@H]1N2C(=O)NC(C)C", "system.tested": "DNA polymerase eta (Homo sapiens) (UniProt Q9Y253)", "class": "inactive"}
{"compound": "Cn1c(O)c(C=Nc2ccc3c(c2)CCC3)c(=O)n(C)c1=O", "system.tested": "DNA polymerase eta (Homo sapiens) (UniProt Q9Y253)", "class": "inactive"}
{"compound": "Cc1ccc(CN2CCCC(C(=O)c3ccc4c(c3)OCO4)C2)cc1C (stereo unspecified)", "system.tested": "DNA polymerase eta (Homo sapiens) (UniProt Q9Y253)", "class": "inactive"}
{"compound": "CC1CCCN1CCC(C(N)=O)(c1ccccc1)c1ccccc1 (stereo unspecified)", "system.tested": "DNA polymerase eta (Homo sapiens) (UniProt Q9Y253)", "class": "inactive"}
{"compound": "Cn1cc(C(=O)OCC(=O)N2CCCC2)c2ccccc21", "system.tested": "DNA polymerase eta (Homo sapiens) (UniProt Q9Y253)", "class": "inactive"}
{"compound": "O=C1NC(=O)N(Cc2ccco2)C(=O)/C1=C\\c1cccn1CCOc1ccccc1", "system.tested": "DNA polymerase eta (Homo sapiens) (UniProt Q9Y253)", "class": "active"}
{"compound": "O=C1NC(=O)N(Cc2ccco2)C(=O)/C1=C\\c1ccc(-c2ccc(F)cc2)o1", "system.tested": "DNA polymerase eta (Homo sapiens) (UniProt Q9Y253)", "class": "active"}
{"compound": "COc1cccc(CN2CCCC(C(=O)c3ccccc3SC)C2)c1O (stereo unspecified)", "system.tested": "DNA polymerase eta (Homo sapiens) (UniProt Q9Y253)", "class": "inactive"}
{"compound": "Cc1c(Oc2cc(NN3CCCCC3)c([N+](=O)[O-])cc2[N+](=O)[O-])cccc1[N+](=O)[O-]", "system.tested": "DNA polymerase eta (Homo sapiens) (UniProt Q9Y253)", "class": "inactive"}
{"compound": "CN(C)S(=O)(=O)c1cc(C(=O)N2CCC(C(=O)O)(c3ccccc3)CC2)ccc1Cl", "system.tested": "DNA polymerase eta (Homo sapiens) (UniProt Q9Y253)", "class": "inactive"}
{"compound": "CCOC(=O)C1=C(C)OC(N)=C(C(=O)OC)C12C(=O)Nc1ccc(Br)cc12 (stereo unspecified)", "system.tested": "DNA polymerase eta (Homo sapiens) (UniProt Q9Y253)", "class": "inactive"}
{"compound": "Cc1cccc(N2C(=O)NC(=O)/C(=C\\c3cnn(-c4ccccc4)c3)C2=O)c1", "system.tested": "DNA polymerase eta (Homo sapiens) (UniProt Q9Y253)", "class": "active"}
{"compound": "O=C1NC(=O)N(CCc2ccc(F)cc2)C(=O)/C1=C/C=C/c1ccccc1", "system.tested": "DNA polymerase eta (Homo sapiens) (UniProt Q9Y253)", "class": "active"}
{"compound": "COc1ccc(C2C=C(C)Oc3c2c(=O)oc2ccccc32)cc1OC (stereo unspecified)", "system.tested": "DNA polymerase eta (Homo sapiens) (UniProt Q9Y253)", "class": "inactive"}
{"compound": "COc1ccc(C(=O)CC2C(=O)N(C)C(=O)N(C)C2=O)cc1", "system.tested": "DNA polymerase eta (Homo sapiens) (UniProt Q9Y253)", "class": "inactive"}
{"compound": "Cc1cc(/C=C2/C(=O)NC(=O)N(Cc3ccco3)C2=O)c(C)n1-c1ccc(C(=O)O)cc1", "system.tested": "DNA polymerase eta (Homo sapiens) (UniProt Q9Y253)", "class": "active"}
{"compound": "COc1ccc(-n2c(O)c(C(C)=Nc3ccc4c(c3)CCC4)c(=O)[nH]c2=O)cc1", "system.tested": "DNA polymerase eta (Homo sapiens) (UniProt Q9Y253)", "class": "inactive"}
{"compound": "Cc1ccc(-n2c(C)cc(/C=C3\\C(=O)NC(=O)N(C)C3=O)c2C)cc1C", "system.tested": "DNA polymerase eta (Homo sapiens) (UniProt Q9Y253)", "class": "active"}
{"compound": "O=C(CCCn1c(=O)[nH]c2cc(Cl)ccc2c1=O)N1CCC2(CC1)OCCO2", "system.tested": "DNA polymerase eta (Homo sapiens) (UniProt Q9Y253)", "class": "inactive"}
